Please go through the items and note down their IC50.
study-system: USP28 (His-tagged USP28-FL-mammalian) (Homo sapiens)
Construct: Expression of USP28 (1-1077)-TEV-6*His (pTT5 vector); made in house; host or cells: Expi293f cells (pTT5 vector)
Sequence (Q96RU2 whole entry): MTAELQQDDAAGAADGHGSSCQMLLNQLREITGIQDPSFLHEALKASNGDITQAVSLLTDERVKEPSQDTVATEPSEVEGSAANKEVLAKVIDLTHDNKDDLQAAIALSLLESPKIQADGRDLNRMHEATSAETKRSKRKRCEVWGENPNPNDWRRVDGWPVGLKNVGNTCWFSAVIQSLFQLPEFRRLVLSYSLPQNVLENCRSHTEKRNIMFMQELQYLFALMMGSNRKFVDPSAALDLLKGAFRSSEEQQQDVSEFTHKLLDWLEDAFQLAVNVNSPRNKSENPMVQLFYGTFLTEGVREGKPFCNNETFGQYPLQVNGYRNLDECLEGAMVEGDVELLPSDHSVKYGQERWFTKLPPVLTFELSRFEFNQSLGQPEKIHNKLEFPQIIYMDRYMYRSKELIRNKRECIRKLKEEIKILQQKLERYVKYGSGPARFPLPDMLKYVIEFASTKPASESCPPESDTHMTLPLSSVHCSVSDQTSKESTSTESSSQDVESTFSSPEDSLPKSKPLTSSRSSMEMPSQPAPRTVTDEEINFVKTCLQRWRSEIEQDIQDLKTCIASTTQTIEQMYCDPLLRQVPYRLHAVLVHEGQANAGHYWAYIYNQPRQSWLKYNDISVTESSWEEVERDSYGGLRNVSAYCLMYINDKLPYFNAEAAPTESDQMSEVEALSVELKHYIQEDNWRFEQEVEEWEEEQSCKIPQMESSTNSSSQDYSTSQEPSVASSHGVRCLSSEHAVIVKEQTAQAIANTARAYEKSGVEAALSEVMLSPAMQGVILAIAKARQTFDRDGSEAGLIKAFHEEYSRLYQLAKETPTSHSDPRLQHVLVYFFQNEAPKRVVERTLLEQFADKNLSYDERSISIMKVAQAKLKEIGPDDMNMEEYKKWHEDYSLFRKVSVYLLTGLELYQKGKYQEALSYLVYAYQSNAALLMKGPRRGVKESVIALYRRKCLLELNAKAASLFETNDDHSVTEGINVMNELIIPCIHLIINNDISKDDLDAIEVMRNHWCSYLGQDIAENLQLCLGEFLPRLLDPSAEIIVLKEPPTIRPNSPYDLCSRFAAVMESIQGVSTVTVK
experiment-notes: Ubiquitin-Rhodamine 110 Assay for USP28 Activity, Example A-1(a)
Type: biochemical
cond: Ubiquitin-Rhodamine 110 assay, Example A-1(a); read-out: USP28 A-1(a) IC50 range

Exam item: What value of IC50 has been reported for the following molecule? CO[C@@]12CCN[C@H]1CN(c1ccc3c(n1)CC[C@H](NC(=O)c1sc4nc(C)ccc4c1N)C3)C2 [Example 434]
Marked response: 50 to 200 nM

Each molecule below has a recorded value; state its IC50.
1. Cc1cnc2c(N)c(C(=O)N[C@H]3COc4c(C#N)c(N5CCNCC5)cc(F)c4C3)sc2n1 [Example 60]
2. Cc1cc(C)c2c(N)c(C(=O)N[C@@H]3COc4cc(N5CCNCC5)c(F)c(F)c4C3)sc2n1 [Example 160]
3. Cc1cnc2c(N)c(C(=O)N[C@@H]3COc4cc(N5CC6CCC(C5)N6)c(F)cc4C3)sc2n1 (single isomer, unassigned) [Example 41]
4. Cc1ccc2c(N)c(C(=O)N[C@H]3CCc4nc(N5CC[C@]6(C5)OCC[C@H]6N)ccc4C3)sc2n1 [Example 408]
5. CN[C@H]1CN(c2ccc3c(c2)OC[C@H](NC(=O)c2sc4nc(C)ccc4c2N)C3)C[C@@H]1OC [Example 212]

Marked response:
["50 to 200 nM", "1 to 50 nM", "200 to 2000 nM", "50 to 200 nM", "1 to 50 nM"]

For each of the items listed, what is its IC50?
1. Cc1ccc2c(N)c(C(=O)N[C@H]3COc4cc(N5CC[C@@H]6CNCC[C@@H]65)ccc4C3)sc2n1 [Example 236]
2. CN[C@H]1CN(c2ccc3c(n2)CC[C@H](NC(=O)c2sc4nc(C)cc(C)c4c2N)C3)C[C@@H]1OC [Example 312]

Marked response:
1: 1 to 50 nM; 2: 50 to 200 nM

Below are 4 molecules. Give each one its IC50.
1. CN[C@H]1CN(c2ccc3c(n2)CC[C@H](NC(=O)c2sc4nc(C)ccc4c2N)C3)C[C@@]1(C)O [Example 331]
2. Cc1ccc2c(N)c(C(=O)N[C@H]3COc4cc(N5CC[C@@]6(C5)OCC[C@@H]6N)ccc4C3)sc2n1 [Example 411]
3. CO[C@H]1CN(c2ncc3c(n2)CC[C@@H](NC(=O)c2sc4nc(C)ccc4c2N)C3)C[C@@H]1N [Example 187]
4. Cc1ccc2c(N)c(C(=O)N[C@H]3COc4cc(N5CC6CNCC(C5)C6(F)F)ncc4C3)sc2n1 [Example 114]

Marked response:
50 to 200 nM
1 to 50 nM
200 to 2000 nM
1 to 50 nM

---

study-system: USP25 (USP25-His6, Boston Biochem E-546) (Homo sapiens, UniProt Q9UHP3)
Construct: His6; purchased Boston Biochem E-546
Sequence (Q9UHP3 1-1055): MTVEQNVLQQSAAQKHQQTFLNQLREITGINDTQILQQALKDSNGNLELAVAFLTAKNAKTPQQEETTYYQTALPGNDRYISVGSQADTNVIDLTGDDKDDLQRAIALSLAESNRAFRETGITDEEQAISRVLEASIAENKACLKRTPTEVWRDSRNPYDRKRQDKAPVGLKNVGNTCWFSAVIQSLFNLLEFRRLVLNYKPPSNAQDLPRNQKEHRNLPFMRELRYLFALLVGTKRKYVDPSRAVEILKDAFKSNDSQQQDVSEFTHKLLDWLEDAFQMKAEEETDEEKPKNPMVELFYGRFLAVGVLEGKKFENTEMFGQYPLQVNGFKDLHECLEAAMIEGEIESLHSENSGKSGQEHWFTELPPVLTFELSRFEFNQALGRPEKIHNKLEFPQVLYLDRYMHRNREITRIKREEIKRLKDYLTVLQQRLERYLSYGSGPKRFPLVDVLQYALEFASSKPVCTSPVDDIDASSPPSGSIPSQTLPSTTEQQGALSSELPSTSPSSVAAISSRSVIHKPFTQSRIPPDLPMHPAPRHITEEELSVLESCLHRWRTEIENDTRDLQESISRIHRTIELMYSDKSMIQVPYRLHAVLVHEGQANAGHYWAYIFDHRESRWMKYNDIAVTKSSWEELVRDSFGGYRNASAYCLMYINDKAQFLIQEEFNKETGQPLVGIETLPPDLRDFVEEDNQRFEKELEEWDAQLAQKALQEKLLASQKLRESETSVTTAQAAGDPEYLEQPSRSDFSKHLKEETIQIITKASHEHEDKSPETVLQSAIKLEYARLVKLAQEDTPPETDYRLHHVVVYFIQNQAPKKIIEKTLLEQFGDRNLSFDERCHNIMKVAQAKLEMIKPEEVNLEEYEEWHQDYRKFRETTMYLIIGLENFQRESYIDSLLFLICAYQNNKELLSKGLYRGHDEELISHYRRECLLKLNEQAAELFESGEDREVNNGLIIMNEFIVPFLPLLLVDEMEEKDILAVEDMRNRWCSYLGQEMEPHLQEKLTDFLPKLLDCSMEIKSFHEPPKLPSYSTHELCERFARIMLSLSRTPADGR
experiment-notes: Ubiquitin-Rhodamine 110 Assay for USP25 Activity, Example A-2
Format: biochemical
cond: Ubiquitin-Rhodamine 110 assay, Example A-2; read-out: USP25 A-2 IC50 range
Consider the following compounds; for each one, report its IC50.

The examples below pair each entry with its known result.
Exam item: May I ask what IC50 has been recorded for `CO[C@]12CNC[C@H]1CN(c1ccc3c(c1)OC[C@H](NC(=O)c1sc4nc(C)ccc4c1N)C3)C2` ?
Marked response: 200 to 2000 nM

Exam item: Given the compound `Cc1cnc2c(N)c(C(=O)N[C@H]3COc4cc(N5CCNCC5)cc(F)c4C3)sc2n1` , what is its reported IC50?
Marked response: 50 to 200 nM

Exam item: Fill in: IC50 of `Cc1ccc2c(N)c(C(=O)N[C@H]3COc4cc(N5CC[C@H]6CCNC[C@H]65)ccc4C3)sc2n1` is ___
Marked response: 50 to 200 nM

Provide each entry's IC50 from the list below.
1. COC[C@]1(C)CN(c2ccc3c(n2)CC[C@H](NC(=O)c2sc4nc(C)ccc4c2N)C3)C[C@H]1N
2. Cc1cc(C)c2c(N)c(C(=O)N[C@H]3COc4cc(N5CC[C@H]6CNC[C@H]65)ccc4C3)sc2n1
3. CO[C@H]1CN(c2ccc3c(c2)CC[C@H](NC(=O)c2sc4nc(C)cnc4c2N)C3)C[C@@H]1N

Marked response:
1. 200 to 2000 nM
2. 50 to 200 nM
3. 200 to 2000 nM

Parameter requested: IC50. Apply to each item below.
1. O=C(N[C@H]1CCc2cc(N3CC4CCC(C3)N4)cc(F)c2C1)c1cnc2c(c1)[C@@H]1C[C@@H]1CN2
2. Cc1cc(C)c2c(N)c(C(=O)N[C@H]3CCc4nc(N5CCNCC5)ccc4C3)sc2n1

Marked response:
["> 2000 nM", "200 to 2000 nM"]

Look at each compound and report its IC50.
1. COC[C@H]1CN(c2ccc3c(c2)OC[C@H](NC(=O)c2sc4nc(C)ccc4c2N)C3)C[C@H]1N
2. O=C(N[C@H]1COc2cc(N3CCNCC3)ccc2C1)c1cnn2ccccc12
3. Cc1ccc2c(N)c(C(=O)N[C@H]3CCc4c(ccc(N5CC6CNCC(C5)O6)c4C#N)C3)sc2n1
4. Cc1ccc2c(N)c(C(=O)N[C@H]3CCc4nc(N5C[C@@H](N)[C@]6(CCCO6)C5)ccc4C3)sc2n1
5. Cc1ccc2c(N)c(C(=O)N[C@H]3COc4cc(N5C[C@@H](N)[C@@H](C(F)F)C5)ccc4C3)sc2n1
6. Cc1ccc2c(N)c(C(=O)N[C@H]3COc4cc(N5CC[C@H](C(=O)O)C5)ccc4C3)sc2n1
7. N#Cc1c(N2CC3CCC(C2)N3)cc2c(c1F)C[C@@H](NC(=O)c1cnc3c(c1)[C@@H]1C[C@@H]1CN3)CO2

Marked response:
50 to 200 nM
> 2000 nM
50 to 200 nM
200 to 2000 nM
200 to 2000 nM
> 2000 nM
1 to 50 nM

---

study-system: USP25 (USP25-His6, Boston Biochem E-546) (Homo sapiens, UniProt Q9UHP3)
Construct: His6; purchased Boston Biochem E-546
experiment-notes: Ubiquitin-Rhodamine 110 Assay for USP25 Activity, Example A-2
Assay type: biochemical
cond: Ubiquitin-Rhodamine 110 assay, Example A-2; read-out: USP25 A-2 IC50 range
pIC50: −log10 of the molar value.
Consider the following molecules; for each one, report its pIC50.

Examples from the recorded data:
Exam item: Any idea what its pIC50 is? The molecule is `Cc1ccc2c(N)c(C(=O)N[C@H]3COc4cc(N5CCC[C@@H]6CNC[C@@H]65)ccc4C3)sc2n1`
Marked response: 6.70 to 7.30

Exam item: # lookup: pIC50 of `Cc1cc(C)c2c(N)c(C(=O)N[C@H]3COc4cc(N5CCNCC5)c(F)c(F)c4C3)sc2n1`
Marked response: < 5.70

Exam item: Which value of pIC50 has been reported for `Cc1cc(C(F)(F)F)c2c(N)c(C(=O)N[C@H]3COc4cc(N5CCNCC5)cc(F)c4C3)sc2n1` in the records?
Marked response: 6.70 to 7.30

Exam item: Requested field: pIC50. Item: `Cc1ccc2c(N)c(C(=O)N[C@H]3COc4cc([C@H]5CCNC[C@H]5O)ccc4C3)sc2n1`
Marked response: 7.30 to 9.00

Exam item: Item `CO[C@H]1CN(c2cc(F)c3c(c2)OC[C@H](NC(=O)c2sc4nc(C)ccc4c2N)C3)C[C@H]1N` has what recorded pIC50?
Marked response: 5.70 to 6.70

Dear colleague, could you send me pIC50 for each of the items below? Thanks.
1. Cc1ccc2c(N)c(C(=O)N[C@H]3CCc4nc(N5CCNCC5)c(F)cc4C3)sc2n1 (single isomer, unassigned)
2. Cc1ccc2c(N)c(C(=O)N[C@H]3CCc4nc(N5CCNCC5)cc(F)c4C3)sc2n1
3. Cc1ccc2c(N)c(C(=O)N[C@H]3CCc4nc(N5C[C@H](OC(C)C)[C@@H](N)C5)ccc4C3)sc2n1
4. Cc1ccc2c(N)c(C(=O)N[C@H]3COc4cc(N5CC6CNCC(C5)O6)c(F)cc4C3)sc2n1
5. Cc1ccc2c(N)c(C(=O)N[C@H]3COc4cc(N5CCC[C@@](C)(O)C5)ccc4C3)sc2n1
6. O=C(N[C@H]1COc2cc(N3CC4CCC(C3)N4)ccc2C1)c1cnc2c(c1)[C@H]1C[C@H]1CN2
7. Cc1cnc2c(N)c(C(=O)N[C@H]3COc4c(C#N)c(N5CC6CC(C5)N6)cc(F)c4C3)sc2n1

Marked response:
1: 5.70 to 6.70; 2: 5.70 to 6.70; 3: < 5.70; 4: 6.70 to 7.30; 5: 5.70 to 6.70; 6: < 5.70; 7: 5.70 to 6.70
